- systemTested: ENaC (Epithelial Sodium Channel), Mouse kidney M-1 cells (Mus musculus, UniProt Q61180+Q9WU38+Q9WU39)
- Construct: Mouse kidney M-1 cells were cultivated in DMEM containing 5% FCS and 5 μM dexamethasone; endogenous in cells
- Sequence (Q61180 1-699): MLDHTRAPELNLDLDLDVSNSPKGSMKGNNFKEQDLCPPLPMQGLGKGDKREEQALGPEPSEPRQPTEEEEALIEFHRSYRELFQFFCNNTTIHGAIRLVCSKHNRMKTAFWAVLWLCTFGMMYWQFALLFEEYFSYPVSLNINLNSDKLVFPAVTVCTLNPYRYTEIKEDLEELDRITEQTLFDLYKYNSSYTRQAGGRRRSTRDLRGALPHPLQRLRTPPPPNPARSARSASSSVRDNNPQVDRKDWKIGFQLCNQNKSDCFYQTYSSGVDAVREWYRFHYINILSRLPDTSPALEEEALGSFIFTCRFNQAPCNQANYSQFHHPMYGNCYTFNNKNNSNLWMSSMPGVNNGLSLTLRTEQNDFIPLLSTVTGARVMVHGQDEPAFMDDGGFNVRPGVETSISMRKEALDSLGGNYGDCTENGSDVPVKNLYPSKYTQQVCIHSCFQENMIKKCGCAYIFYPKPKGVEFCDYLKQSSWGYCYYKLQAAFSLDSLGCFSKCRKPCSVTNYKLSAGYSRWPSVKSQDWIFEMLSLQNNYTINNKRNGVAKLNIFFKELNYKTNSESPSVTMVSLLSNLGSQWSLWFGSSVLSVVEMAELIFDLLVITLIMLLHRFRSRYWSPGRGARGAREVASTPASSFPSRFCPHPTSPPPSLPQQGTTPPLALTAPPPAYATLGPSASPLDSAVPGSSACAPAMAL
- Sequence (Q9WU38 1-638): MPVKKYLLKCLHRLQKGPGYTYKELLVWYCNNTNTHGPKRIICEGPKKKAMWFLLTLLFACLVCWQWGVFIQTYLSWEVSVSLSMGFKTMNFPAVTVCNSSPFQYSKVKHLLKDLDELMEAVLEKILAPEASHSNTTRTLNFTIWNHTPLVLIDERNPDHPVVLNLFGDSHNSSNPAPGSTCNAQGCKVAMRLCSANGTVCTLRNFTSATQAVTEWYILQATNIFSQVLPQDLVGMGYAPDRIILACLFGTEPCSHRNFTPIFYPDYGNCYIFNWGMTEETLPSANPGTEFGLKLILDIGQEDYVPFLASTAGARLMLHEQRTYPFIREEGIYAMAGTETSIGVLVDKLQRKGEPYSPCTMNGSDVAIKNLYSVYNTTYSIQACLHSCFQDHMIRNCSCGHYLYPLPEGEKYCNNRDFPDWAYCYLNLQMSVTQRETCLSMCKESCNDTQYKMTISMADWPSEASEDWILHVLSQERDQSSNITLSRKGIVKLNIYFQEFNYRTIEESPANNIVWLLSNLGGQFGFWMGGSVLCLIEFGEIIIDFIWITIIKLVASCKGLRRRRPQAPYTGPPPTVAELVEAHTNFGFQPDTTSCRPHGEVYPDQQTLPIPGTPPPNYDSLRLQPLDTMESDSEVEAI
- Sequence (Q9WU39 1-655): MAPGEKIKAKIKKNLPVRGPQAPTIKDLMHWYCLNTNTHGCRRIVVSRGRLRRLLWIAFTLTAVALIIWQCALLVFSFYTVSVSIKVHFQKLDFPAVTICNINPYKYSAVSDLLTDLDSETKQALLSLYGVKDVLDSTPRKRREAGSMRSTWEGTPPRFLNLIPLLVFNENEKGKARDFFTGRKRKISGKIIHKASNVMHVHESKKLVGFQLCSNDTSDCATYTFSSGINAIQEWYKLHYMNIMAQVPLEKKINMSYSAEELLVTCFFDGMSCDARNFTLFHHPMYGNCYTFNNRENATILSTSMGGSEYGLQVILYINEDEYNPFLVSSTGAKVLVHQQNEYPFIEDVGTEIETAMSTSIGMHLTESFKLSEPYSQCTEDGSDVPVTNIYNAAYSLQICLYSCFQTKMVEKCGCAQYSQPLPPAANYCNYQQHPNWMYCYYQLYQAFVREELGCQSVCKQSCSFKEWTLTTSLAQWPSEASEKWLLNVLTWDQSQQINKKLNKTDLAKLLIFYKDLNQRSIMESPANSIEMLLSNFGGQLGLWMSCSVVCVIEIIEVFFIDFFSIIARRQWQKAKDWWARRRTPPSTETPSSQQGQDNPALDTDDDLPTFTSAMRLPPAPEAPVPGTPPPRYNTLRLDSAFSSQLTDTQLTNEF
- protocolDescription: Ussing Chamber assay: inhibition of amiloride sensitive short circuit current in M-1 cells
- setupConditions: apical application, 37° C.
Recorded pIC50, one value per entry.
Value format note: pIC50 is -log10 of concentration (mol/L); just state the number.

{"compound": "CCn1c(CNC(=O)c2nc(Cl)c(N)nc2N)[n+](CC(=O)N2CCN(C(=O)OC(C)(C)C)CC2)c2ccc(OC)cc21.[Br-] [Example 3.08]", "pIC50": 8.40}

Query: For the compound CC[n+]1c(CNC(=O)c2nc(Cl)c(N)nc2N)n(CCOCCOCCNC(=O)c2nc(Cl)c(N)nc2N)c2cc(OC)ccc21 [Example 5.01] , report pIC50.
Response: 8.40

Query: Entry CCn1c(CNC(=O)c2nc(Cl)c(N)nc2N)[n+](CC(N)=O)c2ccc(OC)cc21 [Example 3.10] needs its pIC50 filled in; supply it.
Response: 9.00

Query: Could you please provide reported pIC50 for CCn1c(CNC(=O)c2nc(Cl)c(N)nc2N)[n+](CC(=O)N(C)CCN(C)C)c2ccc(OC)cc21 [Example 3.09] ? Thanks!
Response: 7.48

Query: Entry CCNC(=O)C[n+]1c(CNC(=O)c2nc(Cl)c(N)nc2N)n(CC)c2cc(OC)ccc21 [Example 3.03] needs its pIC50 filled in; supply it.
Response: 8.40
